experimental_system: human TPH1 (Homo sapiens, UniProt P17752)
Sequence (P17752 whole entry): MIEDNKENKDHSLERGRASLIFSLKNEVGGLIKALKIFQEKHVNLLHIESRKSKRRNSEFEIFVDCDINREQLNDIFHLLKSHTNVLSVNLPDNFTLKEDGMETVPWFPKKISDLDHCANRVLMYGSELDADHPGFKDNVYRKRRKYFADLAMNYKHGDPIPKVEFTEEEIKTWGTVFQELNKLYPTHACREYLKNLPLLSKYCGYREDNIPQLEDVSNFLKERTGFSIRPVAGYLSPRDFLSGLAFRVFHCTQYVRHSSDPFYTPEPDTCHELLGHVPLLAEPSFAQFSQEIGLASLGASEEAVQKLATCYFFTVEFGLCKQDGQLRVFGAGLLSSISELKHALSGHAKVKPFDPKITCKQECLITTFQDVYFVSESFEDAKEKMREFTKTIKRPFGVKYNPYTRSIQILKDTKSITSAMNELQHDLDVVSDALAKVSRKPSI
method_summary: biochemical
Listing of entries alongside the reported IC50.
reported_endpoint: IC50 (nM)

# compound, display_unit, numeric_value
records = [
    ("Cc1ccc(C2c3c(nc4cc(C(F)(F)F)ccn34)CCN2C(=O)COc2ccc3ccccc3c2)cc1 (stereo not shown)", "nM", 67),
    ("COc1ccc(C2c3c(nc4cc(C(F)(F)F)ccn34)CCN2C(=O)COc2cccnc2C)cc1OC (stereo not shown)", "nM", 266),
    ("COc1cc(C2c3c(nc4cc(C(F)(F)F)ccn34)CCN2C(=O)COc2ccc3ccccc3c2)ccc1O (stereo not shown)", "nM", 318),
    ("COc1ccc(C2c3c(nc4cc(C(F)(F)F)ccn34)CCN2C(=O)COc2ccc3ccccc3c2)cc1OC(F)(F)F (stereo not shown)", "nM", 75),
]

====

experimental_system: UniProtKB P17752
method_summary: biochemical
pIC50: −log10 of the molar value.

# compound, experimental_system, pIC50
rows = [
    ("O=C(COc1ccc(N2CCOCC2)nc1Cl)N1CCc2nc3ccccn3c2C1c1ncc(C2CC2)cc1F (stereo not shown) [Example 1.12.1]", "UniProtKB P17752", 8.10),
    ("COc1ccc(C2c3c(nc4cc(Cl)ccn34)CCN2C(=O)COc2ccc(CN3CCOCC3)cc2Cl)c(F)c1 (stereo not shown) [Example 2.3.1]", "UniProtKB P17752", 8.10),
    ("O=C(COc1ccc2ccccc2c1)N1CCc2nc3cc(C(F)(F)F)ccn3c2C1c1ccc(C(F)(F)F)cc1 (stereo not shown) [Example 3.28.1]", "UniProtKB P17752", 6.81),
    ("O=C(COc1ccc(CN2CCOCC2)cc1Cl)N1CCc2nc3cc(C(F)(F)F)ccn3c2C1c1ccc(Cl)cc1F (stereo not shown) [Example 3.4.2]", "UniProtKB P17752", 8.15),
    ("O=C(COc1ccc(CN2CCOCC2)cc1Cl)N1CCc2nc3cc(C(F)(F)F)ccn3c2C1c1ccc(OC(F)F)cc1 (stereo not shown) [Example 3.26.2]", "UniProtKB P17752", 7.27),
    ("COc1ccc(C2c3c(nc4cc(Cl)ccn34)CCN2C(=O)COc2ccc(N3CCOCC3)cc2Cl)cc1OC (stereo not shown) [Example 2.1.7]", "UniProtKB P17752", 7.47),
    ("CS(=O)(=O)Nc1ccc(OCC(=O)N2CCc3nc4cnccn4c3C2c2ccc(Cl)cc2F)c(Cl)n1 (stereo not shown) [Example 17.2.1]", "UniProtKB P17752", 6.67),
    ("COc1ccc(C2c3c(nc4cc(Cl)ccn34)CCN2C(=O)COc2ccc(CN3CCOCC3)cc2Cl)cc1OCCO (stereo not shown) [Example 2.13.2]", "UniProtKB P17752", 7.64),
    ("O=C(COc1cccnc1C(F)(F)F)N1CCc2nc3cccnn3c2C1c1ncc(C2CC2)cc1F (stereo not shown) [Example 16.2.3]", "UniProtKB P17752", 6.84),
    ("COc1ccc(C2c3c(nc4cc(C(F)(F)F)ccn34)CCN2C(=O)COc2ccc(C(F)(F)F)cc2Cl)cc1OC (stereo not shown) [Example 3.1.3]", "UniProtKB P17752", 7.44),
    ("COc1cc(F)c(C2c3c(nc4cc(C(F)(F)F)ccn34)CCN2C(=O)COc2ccc(C3(N[S+]([O-])C(C)(C)C)COC3)cc2Cl)cc1OC (stereo not shown) [Example 3.18.8]", "UniProtKB P17752", 7.32),
    ("COc1cc(F)c(C2c3c(nc4cc(C(F)(F)F)ccn34)CCN2C(=O)COc2ccc3c(c2)CN(C(=O)OC(C)(C)C)CC3)cc1OC (stereo not shown) [Example 3.18.3]", "UniProtKB P17752", 8.05),
    ("CC(C)c1noc(C2c3c(nc4cc(Cl)ccn34)CCN2C(=O)COc2ccc(N3CCOCC3)nc2Cl)n1 (stereo not shown) [Example 2.6.1]", "UniProtKB P17752", 6.65),
    ("O=C(COc1ccc(CN2CCOCC2)cc1Cl)N1CCc2nc3cc(C(F)(F)F)ccn3c2C1c1cccnc1F (stereo not shown) [Example 3.2.1]", "UniProtKB P17752", 7.37),
    ("Cc1noc(C)c1C1c2c(nc3cc(C(F)(F)F)ccn23)CCN1C(=O)COc1ccc(CN2CCOCC2)cc1Cl (stereo not shown) [Example 3.51.2]", "UniProtKB P17752", 6.66),
    ("O=C(COc1ccc(N2CCOCC2)nc1Cl)N1CCc2nc3cccnn3c2C1c1ncc(C2CC2)cc1F (stereo not shown) [Example 16.2.1]", "UniProtKB P17752", 7.85),
    ("Cc1nc(N(C)C)ccc1OCC(=O)N1CCc2nc3ccccn3c2C1c1ccc(C2CC2)cc1F (stereo not shown) [Example 1.5.3]", "UniProtKB P17752", 7.38),
    ("Cc1cc(C2c3c(nc4cc(C(F)(F)F)ccn34)CCN2C(=O)COc2ccc3ccccc3c2)no1 (stereo not shown) [Example 3.45.1]", "UniProtKB P17752", 6.46),
    ("COc1ccc(C2c3c(nc4cc(C(F)(F)F)ccn34)CCN2C(=O)COc2ccc(Cl)cc2Cl)cc1OC (stereo not shown) [Example 3.1.2]", "UniProtKB P17752", 7.52),
    ("CCc1cc2nc3c(n2cc1C)C(c1ccc(OC)c(OC)c1)N(C(=O)COc1ccc2ccccc2c1CC)CC3 (stereo not shown) [Example 6.1.3]", "UniProtKB P17752", 8.05),
    ("Cc1ccc(C2c3c(nc4cc(C(F)(F)F)ccn34)CCN2C(=O)COc2ccc(CN3CCOCC3)cc2Cl)c(F)c1 (stereo not shown) [Example 3.22.1]", "UniProtKB P17752", 8.15),
    ("COc1ccc(C2c3c(nc4ccccn34)CCN2C(=O)COc2ccc3ccccc3c2)cc1OC (stereo not shown) [Example 1.1.5]", "UniProtKB P17752", 7.62),
    ("O=C(COc1ccc2ccccc2c1)N1CCc2nc3cc(C(F)(F)F)ccn3c2C1c1ncc2ccccn12 (stereo not shown) [Example 3.43.2]", "UniProtKB P17752", 6.68),
    ("COc1ccc(C2c3c(nc4cc(C(C)(C)C)ccn34)CCN2C(=O)COc2ccc(Cl)cc2Cl)cc1OC (stereo not shown) [Example 5.1.1]", "UniProtKB P17752", 8.00),
    ("COc1ccc(C2c3c(nc4cc(C(F)(F)F)ccn34)CCN2C(=O)COc2ccc(OC(F)(F)F)cc2)cc1OC (stereo not shown) [Example 3.1.11]", "UniProtKB P17752", 6.70),
    ("O=C(COc1ccc(CN2CCOCC2)cc1Cl)N1CCc2nc3cc(C(F)(F)F)ccn3c2C1c1ccc(Cl)cc1 (stereo not shown) [Example 3.30.2]", "UniProtKB P17752", 7.70),
    ("O=C(COc1ccc2ccccc2c1)N1CCc2nc3cc(C(F)(F)F)ccn3c2C1c1cc(-c2ccc(F)cc2)on1 (stereo not shown) [Example 3.47.1]", "UniProtKB P17752", 6.43),
    ("CCc1cc(Cl)ccc1OCC(=O)N1CCc2nc3cc(C(F)(F)F)ccn3c2C1c1ccc(OC)c(OC)c1 (stereo not shown) [Example 3.1.29]", "UniProtKB P17752", 7.19),
]

====

experimental_system: human TPH1 (Homo sapiens)
method_summary: biochemical
Counter-ions that a name gives are not always drawn.
The label True is reserved for IC50 strictly under 90 nM; False covers values equal to or above it.

# compound, experimental_system, discrete_label
measured = [
    ("CCc1nc(C)ccc1OCC(=O)N1CCc2nc3cccnn3c2C1c1ncc(C2CC2)cc1F (centres unmarked)", "human TPH1 (Homo sapiens)", "False"),
    ("O=C(COc1ccc(CN2CCOCC2)cc1Cl)N1CCc2nc3cc(Cl)ccn3c2C1c1cccnc1F (centres unmarked)", "human TPH1 (Homo sapiens)", "False"),
    ("COc1ccc(C2c3c(nc4cc(C(F)(F)F)ccn34)CCN2C(=O)COc2ccc3c(c2C)CCN(C(=O)OC(C)(C)C)C3)c(F)c1 (centres unmarked)", "human TPH1 (Homo sapiens)", "False"),
    ("COc1ccc(C2c3c(nc4cc(C(F)(F)F)ccn34)CCN2C(=O)COc2cccnc2Cl)cc1 (centres unmarked)", "human TPH1 (Homo sapiens)", "False"),
    ("CCc1ncccc1OCC(=O)N1CCc2nc3ccccn3c2C1c1ccc(Cl)nc1F (centres unmarked)", "human TPH1 (Homo sapiens)", "False"),
    ("O=C(COc1ccc(N2CCOCC2)nc1Cl)N1CCc2nc3ccccn3c2C1c1ncc(Cl)cc1F (centres unmarked)", "human TPH1 (Homo sapiens)", "True"),
    ("O=C(COc1ccc2ccccc2c1)N1CCc2nc3cc(C(F)(F)F)ccn3c2C1c1cnn(-c2ccccc2)c1 (centres unmarked)", "human TPH1 (Homo sapiens)", "False"),
    ("O=C(COc1ccc(N2CCOCC2)nc1Cl)N1CCc2nc3ccccn3c2C1c1ccc(Cl)cc1F (centres unmarked)", "human TPH1 (Homo sapiens)", "True"),
    ("Cc1cc(C2c3c(nc4cc(C(F)(F)F)ccn34)CCN2C(=O)COc2ccc(CN3CCOCC3)cc2Cl)ccc1F (centres unmarked)", "human TPH1 (Homo sapiens)", "False"),
    ("COc1ccc(C2c3c(nc4cc(Cl)ccn34)CCN2C(=O)COc2ccc3ccccc3c2)cc1OC (centres unmarked) [Example 2.1.1, hydrochloride]", "human TPH1 (Homo sapiens)", "True"),
    ("CCOc1ccc(C2c3c(nc4cc(C(F)(F)F)ccn34)CCN2C(=O)COc2ccc(CN3CCOCC3)c(C)c2C)cc1 (centres unmarked)", "human TPH1 (Homo sapiens)", "True"),
    ("O=C(COc1ccc(N2CCOCC2)nc1Cl)N1CCc2nc3cnccn3c2C1c1ccc(C2CC2)cc1F (centres unmarked)", "human TPH1 (Homo sapiens)", "True"),
    ("O=C(COc1ccc(CN2CCOCC2)cc1Cl)N1CCc2nc3cc(C(F)(F)F)ccn3c2C1c1cc(-c2ccccc2)on1 (centres unmarked)", "human TPH1 (Homo sapiens)", "True"),
    ("O=C(COc1ccc2ccccc2c1)N1CCc2nc3cc(C(F)(F)F)ccn3c2C1c1cccnc1F (centres unmarked)", "human TPH1 (Homo sapiens)", "True"),
    ("COCCOc1ccc(C2c3c(nc4ccccn34)CCN2C(=O)COc2ccc(C(=O)NC3CC3)nc2Cl)c(F)c1 (centres unmarked)", "human TPH1 (Homo sapiens)", "True"),
    ("CS(=O)(=O)Nc1ccc(OCC(=O)N2CCc3nc4ccc(F)cn4c3C2c2ccc(Cl)cc2F)c(Cl)n1 (centres unmarked)", "human TPH1 (Homo sapiens)", "True"),
    ("COc1ccc(C2c3c(nc4cc(Cl)ccn34)CCN2C(=O)COc2ccc([N+](=O)[O-])cc2Cl)cc1OC (centres unmarked)", "human TPH1 (Homo sapiens)", "False"),
    ("COc1ccc(C2c3c(nc4cc(Cl)ccn34)CCN2C(=O)COc2ccc(CN3CCOCC3)nc2Cl)c(F)c1 (centres unmarked)", "human TPH1 (Homo sapiens)", "True"),
    ("O=C(COc1ccc(CN2CCOCC2)cc1Cl)N1CCc2nc3ccccn3c2C1c1cccnc1F (centres unmarked)", "human TPH1 (Homo sapiens)", "False"),
    ("COc1ccc(C2c3c(nc4ccccn34)CCN2C(=O)COc2ccc(C)cc2C)cc1OC (centres unmarked)", "human TPH1 (Homo sapiens)", "False"),
    ("Cc1noc(C)c1C1c2c(nc3cc(C(F)(F)F)ccn23)CCN1C(=O)COc1ccc2ccccc2c1 (centres unmarked)", "human TPH1 (Homo sapiens)", "True"),
    ("COc1ccc(C2c3c(nc4cc(C(F)(F)F)ccn34)CCN2C(=O)COc2ccc3ncccc3c2)cc1OC (centres unmarked)", "human TPH1 (Homo sapiens)", "False"),
    ("CS(=O)(=O)Nc1ccc(OC2(C(=O)N3CCc4nc5ccccn5c4C3c3ccc(Cl)cc3F)CC2)c(Cl)n1 (centres unmarked)", "human TPH1 (Homo sapiens)", "False"),
    ("COc1ccc(C2c3c(nc4ccccn34)CCN2C(=O)COc2ccc(NS(C)(=O)=O)nc2Cl)c(F)c1 (centres unmarked)", "human TPH1 (Homo sapiens)", "True"),
    ("Cc1cc(C2c3c(nc4cc(C(F)(F)F)ccn34)CCN2C(=O)COc2ccc3ccccc3c2)ccn1 (centres unmarked)", "human TPH1 (Homo sapiens)", "False"),
    ("COc1ccc(C2c3c(nc4cc(Cl)ccn34)CCN2C(=O)COc2ccc3ccccc3c2)cc1OCCO (centres unmarked)", "human TPH1 (Homo sapiens)", "True"),
    ("COc1ccc(C2c3c(nc4ccccn34)CCN2C(=O)COc2ccc3ccccc3c2Br)cc1OC (centres unmarked)", "human TPH1 (Homo sapiens)", "True"),
]

The reported numbers originate from patent US20180155344A1.
